Hello, the source for this data is paper PMC10885153, in case you need it.

test: PAMPA, compounds measured in multiplex as mixtures (primary protocol); conditions: PAMPA, pH 7.4, PAMPA Papp, internal standard, 10 µM, StereoA expt. group A2D
recorded_endpoint: Papp at 10 µM
Remember to follow the number with its unit.

Q: Suppose we examine the compound NC(=O)N1c2ccccc2C=Cc2ccccc21 [Carbamazepine] ; what Papp at 10 µM value has been reported?
Ans: 4.4 ×10⁻⁶ cm/s

----------
experiment: PAMPA, compounds measured in multiplex as mixtures (primary protocol); conditions: PAMPA, pH 7.4, PAMPA Papp, internal standard, 10 µM, Lipo expt. group A2
Catalogue of molecules with associated Papp at 10 µM
Please give a number only; it is taken to be in ×10⁻⁶ cm/s.

- molecule: "CC(C)NCC(O)COc1cccc2ccccc12 (centres unmarked) [Propranolol]"
  Papp at 10 µM [×10⁻⁶ cm/s]: 9.2

As a next step, examine the molecule that follows.
Q: So what's the measured Papp at 10 µM for this one? NC(=O)N1c2ccccc2C=Cc2ccccc21 [Carbamazepine]
Ans: 6
